The values you see were collected from patent US20030166571A1.

Measured on: T1, human ORL-1 receptor (opioid receptor like 1) (human, UniProt P41146 1-370)
T1 construct: whole, on cells; Assays were run on membranes of CHO cells transfected with human ORL-1; also called opiate receptor like 1; nociceptin receptor
Procedure details: [3H]nociceptin displacement, membranes of CHO cells transfected with human ORL-1; Ki=IC50/(1+L/Kd)
Square brackets hold non-standard residues; d marks the D form. * marks the point of attachment. Phe(4-CH2NH2) = NCc1ccc(C[C@H](N)C(=O)O)cc1; Tyr(3-Cl) = N[C@@H](Cc1ccc(O)c(Cl)c1)C(=O)O; Phe(4-CN) = N#Cc1ccc(C[C@H](N)C(=O)O)cc1; Phe(4-F) = N[C@@H](Cc1ccc(F)cc1)C(=O)O; Phe(4-Me) = Cc1ccc(C[C@H](N)C(=O)O)cc1; hPhe = N[C@@H](CCc1ccccc1)C(=O)O; Dab = NCC[C@H](N)C(=O)O; Dap = NC[C@H](N)C(=O)O; Pentanoyl = CCCCC(=O)*; Ahx = NCCCCCC(=O)O
Quick reference: pKi of the listed items.
Convention used: pKi is expressed as -log10 of the molar concentration.

Example cases with answers are listed next.
Binder	pKi
Ac-RY[Phe(4-CH2NH2)]RWR-NH2 (SMILES CC(=O)N[C@@H](CCCNC(=N)N)C(=O)N[C@@H](Cc1ccc(O)cc1)C(=O)N[C@@H](Cc1ccc(CN)cc1)C(=O)N[C@@H](CCCNC(=N)N)C(=O)N[C@@H](Cc1c[nH]c2ccccc12)C(=O)N[C@@H](CCCNC(=N)N)C(N)=O, also called Ac-Arg-Tyr-Phe(4-CH2NH2)-Arg-Trp-Arg-NH2) [VII-79-A]	8.60
Ac-R[Phe(4-Me)][Phe(4-Me)]RWR-NH2 (SMILES CC(=O)N[C@@H](CCCNC(=N)N)C(=O)N[C@@H](Cc1ccc(C)cc1)C(=O)N[C@@H](Cc1ccc(C)cc1)C(=O)N[C@@H](CCCNC(=N)N)C(=O)N[C@@H](Cc1c[nH]c2ccccc12)C(=O)N[C@@H](CCCNC(=N)N)C(N)=O, also called Ac-Arg-Phe(4-Me)-Phe(4-Me)-Arg-Trp-Arg-NH2) [VII-17-B]	8.00
Ac-R[Phe(4-F)]YRWR-NH2 (SMILES CC(=O)N[C@@H](CCCNC(=N)N)C(=O)N[C@@H](Cc1ccc(F)cc1)C(=O)N[C@@H](Cc1ccc(O)cc1)C(=O)N[C@@H](CCCNC(=N)N)C(=O)N[C@@H](Cc1c[nH]c2ccccc12)C(=O)N[C@@H](CCCNC(=N)N)C(N)=O, also called Ac-Arg-Phe(4-F)-Tyr-Arg-Trp-Arg-NH2) [VII-31-B]	9.28
Ac-[Dap]YYRWR-NH2 (SMILES CC(=O)N[C@@H](CN)C(=O)N[C@@H](Cc1ccc(O)cc1)C(=O)N[C@@H](Cc1ccc(O)cc1)C(=O)N[C@@H](CCCNC(=N)N)C(=O)N[C@@H](Cc1c[nH]c2ccccc12)C(=O)N[C@@H](CCCNC(=N)N)C(N)=O, also called Ac-Dap-Tyr-Tyr-Arg-Trp-Arg-NH2) [VII-65-F]	7.55
Ac-RYY[Ahx]WR-NH2 (SMILES CC(=O)N[C@@H](CCCNC(=N)N)C(=O)N[C@@H](Cc1ccc(O)cc1)C(=O)N[C@@H](Cc1ccc(O)cc1)C(=O)NCCCCCC(=O)N[C@@H](Cc1c[nH]c2ccccc12)C(=O)N[C@@H](CCCNC(=N)N)C(N)=O, also called Ac-Arg-Tyr-Tyr-ε-aminocaproyl-Trp-Arg-NH2) [VII-55-A]	7.41
Pentanoyl-RYYRWR-NH2 (SMILES CCCCC(=O)N[C@@H](CCCNC(=N)N)C(=O)N[C@@H](Cc1ccc(O)cc1)C(=O)N[C@@H](Cc1ccc(O)cc1)C(=O)N[C@@H](CCCNC(=N)N)C(=O)N[C@@H](Cc1c[nH]c2ccccc12)C(=O)N[C@@H](CCCNC(=N)N)C(N)=O, also called Pentanoyl-Arg-Tyr-Tyr-Arg-Trp-Arg-NH2; Pentanoyl-RYYRWR-NH2) [VII-7-B]	9.80
Ac-R[Tyr(3-Cl)]YRWR-NH2 (SMILES CC(=O)N[C@@H](CCCNC(=N)N)C(=O)N[C@@H](Cc1ccc(O)c(Cl)c1)C(=O)N[C@@H](Cc1ccc(O)cc1)C(=O)N[C@@H](CCCNC(=N)N)C(=O)N[C@@H](Cc1c[nH]c2ccccc12)C(=O)N[C@@H](CCCNC(=N)N)C(N)=O, also called Ac-Arg-Tyr(3-Cl)-Tyr-Arg-Trp-Arg-NH2) [VII-87-B]	9.59
{β‑Nva}-RYYRWR-NH2 (also called β-Nva-Arg-Tyr-Tyr-Arg-Trp-Arg-NH2) [VII-2-A]	7.93
Ac-R[Phe(4-CN)]YRWR-NH2 (SMILES CC(=O)N[C@@H](CCCNC(=N)N)C(=O)N[C@@H](Cc1ccc(C#N)cc1)C(=O)N[C@@H](Cc1ccc(O)cc1)C(=O)N[C@@H](CCCNC(=N)N)C(=O)N[C@@H](Cc1c[nH]c2ccccc12)C(=O)N[C@@H](CCCNC(=N)N)C(N)=O, also called Ac-Arg-Phe(4-CN)-Tyr-Arg-Trp-Arg-NH2) [VII-43-C]	9.82
Ac-R[hPhe][hPhe]RWR-NH2 (SMILES CC(=O)N[C@@H](CCCNC(=N)N)C(=O)N[C@@H](CCc1ccccc1)C(=O)N[C@@H](CCc1ccccc1)C(=O)N[C@@H](CCCNC(=N)N)C(=O)N[C@@H](Cc1c[nH]c2ccccc12)C(=O)N[C@@H](CCCNC(=N)N)C(N)=O, also called Ac-Arg-hPhe-hPhe-Arg-Trp-Arg-NH2) [VII-49-B]	8.26

Consider the binder Ac-R[Phe(4-F)][Phe(4-F)]RWR-NH2 (SMILES CC(=O)N[C@@H](CCCNC(=N)N)C(=O)N[C@@H](Cc1ccc(F)cc1)C(=O)N[C@@H](Cc1ccc(F)cc1)C(=O)N[C@@H](CCCNC(=N)N)C(=O)N[C@@H](Cc1c[nH]c2ccccc12)C(=O)N[C@@H](CCCNC(=N)N)C(N)=O, also called VII-33-C; Ac-Arg-Phe(4-F)-Phe(4-F)-Arg-Trp-Arg-NH2) [VII-33-B] and give its measured pKi.
8.82

Consider the binder Nipacotyl-RYYRWR-NH2 (also called Nipacotyl-Arg-Tyr-Tyr-Arg-Trp-Arg-NH2) [VII-1-A] and give its measured pKi.
7.52

Consider the binder Ac-[Dab]YYRWR-NH2 (SMILES CC(=O)N[C@@H](CCN)C(=O)N[C@@H](Cc1ccc(O)cc1)C(=O)N[C@@H](Cc1ccc(O)cc1)C(=O)N[C@@H](CCCNC(=N)N)C(=O)N[C@@H](Cc1c[nH]c2ccccc12)C(=O)N[C@@H](CCCNC(=N)N)C(N)=O, also called Ac-Dab-Tyr-Tyr-Arg-Trp-Arg-NH2) [VII-67-A] and give its measured pKi.
8.25
